target: ^3 H-Diazepam binding, rat brain cortical fragments; experiment: ^3 H-Diazepam binding assay; details: compounds of formula I, inhibition of ^3 H-Diazepam binding by 50%, read-out: ^3 H-Dz. IC50
Can you tell me pIC50 for the items I'm about to list?
One number for each entry, as −log10 of the molar value.

See these solved cases before continuing.
Query block: Dear colleague, I am looking for the recorded pIC50 of the following molecule: "CCNC(=O)C1CCN(c2cc(-c3ccc(F)cc3)nc3ccc(F)cc23)CC1"
Result block: 8.52

Query block: Dear colleague, I am looking for the recorded pIC50 of the following molecule: "CCNC(=O)C1CCN(c2cc(-c3ccc(Cl)cc3)nc3ccccc23)CC1"
Result block: 8.05

Query block: Dear colleague, I am looking for the recorded pIC50 of the following molecule: "NC(=O)C1CCN(c2cc(-c3ccc(Cl)cc3)nc3ccccc23)CC1"
Result block: 7.54

Query block: Dear colleague, I am looking for the recorded pIC50 of the following molecule: "Cc1ccc(-c2cc(N3CCC(C(N)=O)CC3)c3cc(C)ccc3n2)cc1"
Result block: 6.54

Query block: Dear colleague, I am looking for the recorded pIC50 of the following molecule: "CNC(=O)C1CCN(c2cc(-c3ccc(Cl)cc3)nc3ccc(F)cc23)CC1"
Result block: 7.15

Query block: Dear colleague, I am looking for the recorded pIC50 of the following molecule: "NC(=O)C1CCN(c2cc(-c3ccc(F)cc3)nc3ccc(F)cc23)CC1"
Result block: 9.00

Query block: Dear colleague, I am looking for the recorded pIC50 of the following molecule: "CNC(=O)C1CCN(c2cc(-c3ccc(Cl)cc3)nc3ccccc23)CC1"
Result block: 7.71

Query block: Dear colleague, I am looking for the recorded pIC50 of the following molecule: "NC(=O)C1CCN(c2cc(-c3ccc(F)cc3)nc3ccccc23)CC1"
Result block: 8.96

Query block: Dear colleague, I am looking for the recorded pIC50 of the following molecule: "NC(=O)C1CCN(c2cc(-c3ccc(Br)cc3)nc3ccccc23)CC1"
Result block: 7.46

Now turn to the next molecule.
Query block: Dear colleague, I am looking for the recorded pIC50 of the following molecule: "NC(=O)C1CCN(c2cc(-c3ccc(Cl)cc3)nc3ccc(Cl)cc23)CC1"
Result block: 6.69

###

target: ^3 H-Diazepam binding, rat brain cortical fragments; experiment: ^3 H-Diazepam binding assay; settings: standard drugs, inhibition of ^3 H-Diazepam binding by 50%, read-out: IC50
measure: IC50 (nM)
Give bare numbers, in nM.

Query block: Dear colleague, I am looking for the recorded IC50 of the following molecule: CCN(CC)CCN1C(=O)CN=C(c2ccccc2F)c2cc(Cl)ccc21 [Flurazepam, reference compound]
Result block: 15.6

###

biological target: ^3 H-Diazepam binding, rat brain cortical fragments; assay: ^3 H-Diazepam binding assay; details: compounds of formula I, inhibition of ^3 H-Diazepam binding by 50%, read-out: ^3 H-Dz. IC50
measure: pIC50
One number for each entry, as −log10 of the molar value.

Query block: Dear colleague, I am looking for the recorded pIC50 of the following compound: "CNC(=O)C1CCN(c2cc(-c3ccc(F)cc3)nc3ccc(F)cc23)CC1"
Result block: 8.74

Please state, for each entry, its recorded pIC50.
1. Cc1ccc(-c2cc(N3CCC(C(N)=O)CC3)c3ccccc3n2)cc1
2. NC(=O)C1CCN(c2cc(-c3ccc(Cl)cc3)nc3ccc(F)cc23)CC1
3. NC(=O)C1CCN(c2cc(-c3ccc(F)cc3)nc3ccc(Cl)cc23)CC1
4. Cc1ccc(-c2cc(N3CCC(C(N)=O)CC3)c3cc(F)ccc3n2)cc1
5. Cc1ccc2nc(-c3ccc(Cl)cc3)cc(N3CCC(C(N)=O)CC3)c2c1
6. Cc1ccc2nc(-c3ccccc3)cc(N3CCC(C(N)=O)CC3)c2c1
7. Cc1ccc(-c2cc(N3CCC(C(N)=O)CC3)c3cc(Cl)ccc3n2)cc1
8. CCN(CC)C(=O)C1CCN(c2cc(-c3ccc(Cl)cc3)nc3ccccc23)CC1

Result block:
1: 8.77; 2: 7.44; 3: 7.55; 4: 8.27; 5: 6.34; 6: 7.55; 7: 7.22; 8: 6.30

Query block: Dear colleague, I am looking for the recorded pIC50 of the following compound: "NC(=O)C1CCN(c2cc(-c3ccccc3)nc3ccc(Cl)cc23)CC1"
Result block: 7.02

###

Can you tell me LD50 at 24 h for the items I'm about to list?
Assay: 24 hour acute toxicity (LD-50)
Conditions: in vivo, ">" = not tested above indicated value
Method: Utilizing the procedures given below, the compounds of formula I synthesized in the previous examples were assayed for antimetrezol activity and ^3 H-diazepam binding activity. The 24 hour acute toxicity (LD-50, expressed as mg/kg) of each of these compounds was also determined in the standard fashion.

See these solved cases before continuing.
Query block: Dear colleague, I am looking for the recorded LD50 at 24 h of the following compound: "Cc1ccc(-c2cc(N3CCC(C(N)=O)CC3)c3ccccc3n2)cc1"
Result block: > 1000 mg/kg

Query block: Dear colleague, I am looking for the recorded LD50 at 24 h of the following compound: "NC(=O)C1CCN(c2cc(-c3ccc(F)cc3)nc3ccc(Cl)cc23)CC1"
Result block: > 1000 mg/kg

Query block: Dear colleague, I am looking for the recorded LD50 at 24 h of the following compound: "NC(=O)C1CCN(c2cc(-c3ccccc3)nc3ccc(F)cc23)CC1"
Result block: > 1000 mg/kg

Query block: Dear colleague, I am looking for the recorded LD50 at 24 h of the following compound: "Cc1ccc(-c2cc(N3CCC(C(N)=O)CC3)c3cc(Cl)ccc3n2)cc1"
Result block: > 1000 mg/kg

Query block: Dear colleague, I am looking for the recorded LD50 at 24 h of the following compound: "NC(=O)C1CCN(c2cc(-c3ccccc3)nc3ccc(Cl)cc23)CC1"
Result block: > 1000 mg/kg

Please state, for each entry, its recorded LD50 at 24 h.
1. CNC(=O)C1CCN(c2cc(-c3ccc(Cl)cc3)nc3ccccc23)CC1
2. CNC(=O)C1CCN(c2cc(-c3ccc(F)cc3)nc3ccc(Cl)cc23)CC1
3. CNC(=O)C1CCN(c2cc(-c3ccc(Cl)cc3)nc3ccc(F)cc23)CC1
4. Cc1ccc2nc(-c3ccc(F)cc3)cc(N3CCC(C(N)=O)CC3)c2c1

Result block:
["> 1000 mg/kg", "> 1000 mg/kg", "> 1000 mg/kg", "> 1000 mg/kg"]

Please state, for each entry, its recorded LD50 at 24 h.
1. CCNC(=O)C1CCN(c2cc(-c3ccc(F)cc3)nc3ccc(F)cc23)CC1
2. NC(=O)C1CCN(c2cc(-c3ccc(Cl)cc3)nc3ccccc23)CC1

Result block:
1: > 1000 mg/kg; 2: > 1000 mg/kg

Please state, for each entry, its recorded LD50 at 24 h.
1. Cc1ccc(-c2cc(N3CCC(C(N)=O)CC3)c3cc(F)ccc3n2)cc1
2. NC(=O)C1CCN(c2cc(-c3ccc(F)cc3)nc3ccccc23)CC1
3. NC(=O)C1CCN(c2cc(-c3ccc(F)cc3)nc3ccc(F)cc23)CC1
4. CCCNC(=O)C1CCN(c2cc(-c3ccccc3)nc3ccc(F)cc23)CC1
5. CNC(=O)C1CCN(c2cc(-c3ccc(F)cc3)nc3ccc(F)cc23)CC1
6. Cc1ccc2nc(-c3ccccc3)cc(N3CCC(C(N)=O)CC3)c2c1

Result block:
> 1000 mg/kg
> 1000 mg/kg
> 1000 mg/kg
> 1000 mg/kg
> 1000 mg/kg
> 1000 mg/kg

###

target: ^3 H-Diazepam binding, rat brain cortical fragments; test: ^3 H-Diazepam binding assay; conditions: compounds of formula I, inhibition of ^3 H-Diazepam binding by 50%, read-out: ^3 H-Dz. IC50
pIC50: −log10 of the molar value.
The label depends only on pIC50: y if it is at least 8, n if it is smaller.

Query block: Record "Cc1ccc2nc(-c3ccc(F)cc3)cc(N3CCC(C(N)=O)CC3)c2c1" ; criterion: pIC50 no lower than 8. Met?
Result block: n

Query block: Record "CCNC(=O)C1CCN(c2cc(-c3ccccc3)nc3ccc(F)cc23)CC1" ; criterion: pIC50 no lower than 8. Met?
Result block: y

Query block: Record "CN(C)C(=O)C1CCN(c2cc(-c3ccc(Cl)cc3)nc3ccccc23)CC1" ; criterion: pIC50 no lower than 8. Met?
Result block: n

Now examine the next entry.
Query block: Record "NC(=O)C1CCN(c2cc(-c3ccccc3)nc3ccc(F)cc23)CC1" ; criterion: pIC50 no lower than 8. Met?
Result block: y
